# target.or.system: CDK12/Cyclin K (Homo sapiens, UniProt Q9NYV4)
# Sequence (Q9NYV4 whole entry): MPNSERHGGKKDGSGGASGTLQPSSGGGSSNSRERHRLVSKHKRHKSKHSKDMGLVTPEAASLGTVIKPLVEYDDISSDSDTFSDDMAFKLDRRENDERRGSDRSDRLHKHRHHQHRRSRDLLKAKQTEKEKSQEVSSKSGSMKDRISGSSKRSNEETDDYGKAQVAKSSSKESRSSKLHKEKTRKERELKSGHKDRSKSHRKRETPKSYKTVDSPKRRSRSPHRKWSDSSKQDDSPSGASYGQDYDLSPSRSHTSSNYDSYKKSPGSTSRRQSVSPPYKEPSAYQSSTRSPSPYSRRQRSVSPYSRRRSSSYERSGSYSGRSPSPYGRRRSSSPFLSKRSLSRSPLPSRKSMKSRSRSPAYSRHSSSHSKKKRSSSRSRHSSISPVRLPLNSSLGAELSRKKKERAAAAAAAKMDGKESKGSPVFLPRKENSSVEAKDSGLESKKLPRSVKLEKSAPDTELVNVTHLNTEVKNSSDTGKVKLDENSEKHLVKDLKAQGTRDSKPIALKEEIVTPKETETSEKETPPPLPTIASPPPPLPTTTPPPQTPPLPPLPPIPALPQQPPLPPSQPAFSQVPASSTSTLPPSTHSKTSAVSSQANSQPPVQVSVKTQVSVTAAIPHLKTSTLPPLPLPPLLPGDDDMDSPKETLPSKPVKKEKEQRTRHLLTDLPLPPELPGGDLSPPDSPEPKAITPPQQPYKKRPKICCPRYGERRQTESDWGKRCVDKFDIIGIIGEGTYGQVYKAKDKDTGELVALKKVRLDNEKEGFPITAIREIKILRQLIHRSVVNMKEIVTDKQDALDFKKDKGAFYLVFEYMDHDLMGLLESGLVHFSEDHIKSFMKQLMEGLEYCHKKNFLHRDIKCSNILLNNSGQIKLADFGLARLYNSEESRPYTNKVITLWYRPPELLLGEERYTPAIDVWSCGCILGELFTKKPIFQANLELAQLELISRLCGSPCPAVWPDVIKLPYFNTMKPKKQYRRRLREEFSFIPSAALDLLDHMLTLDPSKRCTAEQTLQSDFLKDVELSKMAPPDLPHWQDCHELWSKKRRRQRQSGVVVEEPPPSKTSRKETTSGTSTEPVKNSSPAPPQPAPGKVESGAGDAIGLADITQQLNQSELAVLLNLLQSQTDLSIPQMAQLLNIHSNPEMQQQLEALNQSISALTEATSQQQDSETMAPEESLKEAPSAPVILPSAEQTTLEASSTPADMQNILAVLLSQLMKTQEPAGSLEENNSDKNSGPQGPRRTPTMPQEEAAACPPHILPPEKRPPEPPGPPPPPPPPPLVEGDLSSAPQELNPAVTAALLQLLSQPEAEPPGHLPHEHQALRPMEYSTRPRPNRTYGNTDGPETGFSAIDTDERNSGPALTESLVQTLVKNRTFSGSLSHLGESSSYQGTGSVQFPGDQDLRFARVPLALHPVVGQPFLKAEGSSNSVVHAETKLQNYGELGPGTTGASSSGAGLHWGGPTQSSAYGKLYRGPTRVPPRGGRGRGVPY
# Sequence (O75909 whole entry partner): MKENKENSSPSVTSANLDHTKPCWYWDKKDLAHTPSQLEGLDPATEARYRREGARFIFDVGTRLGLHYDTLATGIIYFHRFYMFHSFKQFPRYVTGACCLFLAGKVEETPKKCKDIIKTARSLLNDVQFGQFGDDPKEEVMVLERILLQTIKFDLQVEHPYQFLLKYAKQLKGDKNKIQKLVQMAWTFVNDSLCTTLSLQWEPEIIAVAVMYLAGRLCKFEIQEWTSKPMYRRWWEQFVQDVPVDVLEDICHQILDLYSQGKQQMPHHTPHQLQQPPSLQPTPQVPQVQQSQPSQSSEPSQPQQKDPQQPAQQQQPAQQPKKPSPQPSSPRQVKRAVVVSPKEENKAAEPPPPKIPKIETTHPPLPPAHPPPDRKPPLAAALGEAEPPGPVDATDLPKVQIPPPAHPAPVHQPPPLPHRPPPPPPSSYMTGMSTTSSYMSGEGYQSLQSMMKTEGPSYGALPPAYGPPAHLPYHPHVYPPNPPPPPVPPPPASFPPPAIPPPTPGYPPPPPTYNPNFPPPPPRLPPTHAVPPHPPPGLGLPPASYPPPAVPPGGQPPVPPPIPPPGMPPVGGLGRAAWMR
# test.name: CDK12/CyclinK in vitro kinase assay (BPS kit, Kinase Glo MAX)
# condition.context: read-out: IC50, in vitro inhibition of CDK12/Cyclin K activity
result.type: IC50 (µM)
Respond with the bare value in µM.

Ask: State recorded IC50 with CDK12/Cyclin K (Homo sapiens, UniProt Q9NYV4), entry CN(C)C/C=C/C(=O)Nc1ccc(C(=O)N2CCC[C@@H](Nc3ncc(Cl)c(-c4c[nH]c5ccccc45)n3)C2)cc1 , no comment.
Reply: 0.029

Ask: State recorded IC50 with CDK12/Cyclin K (Homo sapiens, UniProt Q9NYV4), entry CN(C)c1ccc(CC(=O)Nc2ncc(SCc3cccnc3)s2)cc1 , no comment.
Reply: 6
